The values you see were collected from the supplement of paper PMC13380429.

# Tested on: Vero E6
# METHOD NOTES: cell viability relative to DMSO; higher = less toxic
# MEASUREMENT PARAMETERS: 72 h; 1000 nM
Reported values of cell viability for individual entries
MEASUREMENT LABEL: cell viability (%)

>  <COMPOUND>
C[N+](C)(C)[C@@H](Cc1c[nH]c(=S)[nH]1)C(=O)O

>  <UOM>
%

>  <VAL>
109

$$$$
>  <COMPOUND>
CCC(C(=O)O)c1ccc(CC(C)C)cc1 (centres undefined)

>  <UOM>
%

>  <VAL>
95.9

$$$$
>  <COMPOUND>
O=C(O)Cc1ccc2c(c1)C(=O)c1ccccc1CO2

>  <UOM>
%

>  <VAL>
101

$$$$
>  <COMPOUND>
O=C(Nc1ccc([N+](=O)[O-])cc1O)Nc1ccccc1Br

>  <UOM>
%

>  <VAL>
85.7

$$$$
>  <COMPOUND>
CCCCCNC(=N)N/N=C/c1c[nH]c2ccc(OC)cc12

>  <UOM>
%

>  <VAL>
90.7

$$$$
>  <COMPOUND>
CCN(CC)CCN(Cc1ccc(-c2ccc(C(F)(F)F)cc2)cc1)C(=O)Cn1c(SCc2ccc(F)cc2)nc(=O)c2c1CCC2

>  <UOM>
%

>  <VAL>
92.4

$$$$
>  <COMPOUND>
CN(C)CCOc1ccc(/C(=C(/CCCl)c2ccccc2)c2ccccc2)cc1

>  <UOM>
%

>  <VAL>
95.3

$$$$
>  <COMPOUND>
CC(C)COc1ccc(CNC(=O)N(Cc2ccc(F)cc2)C2CCN(C)CC2)cc1

>  <UOM>
%

>  <VAL>
99.4

$$$$
>  <COMPOUND>
CC(SC(=O)c1cccs1)C(=O)NCC(=O)O (centres undefined)

>  <UOM>
%

>  <VAL>
101

$$$$

---

# System: Caco-2
# METHOD NOTES: cell viability relative to DMSO; higher = less toxic
# MEASUREMENT PARAMETERS: 72 h; 100 nM
Reported values of cell viability for individual entries

>  <COMPOUND>
CCOP(=S)(OCC)Oc1cc(C)nc(C(C)C)n1 [dimpylate]

>  <cell viability (%)>
103

$$$$
>  <COMPOUND>
FC(F)(F)C(F)(F)C(F)(F)C(F)(F)C(F)(F)C(F)(F)C(F)(F)C(F)(F)Br

>  <cell viability (%)>
91.8

$$$$
>  <COMPOUND>
O=C(Nc1ccncc1)C(=O)c1cn(Cc2ccc(Cl)cc2)c2ccccc12

>  <cell viability (%)>
94.9

$$$$
>  <COMPOUND>
Cc1ncc(-c2ccnc(Nc3ccc(S(C)(=O)=O)cc3)n2)n1C(C)C

>  <cell viability (%)>
104

$$$$
>  <COMPOUND>
N#CC(C#N)=Cc1ccc(O)c(O)c1

>  <cell viability (%)>
93.9

$$$$
>  <COMPOUND>
C[S+]([O-])CCCCN=C=S (stereo not given)

>  <cell viability (%)>
104

$$$$
>  <COMPOUND>
COc1cc(C[C@@H]2NCCc3cc(O)c(O)cc32)cc(OC)c1OC

>  <cell viability (%)>
118

$$$$
>  <COMPOUND>
O=c1[nH]ccc2cc(OC3CCNCC3)ccc12

>  <cell viability (%)>
99.7

$$$$
>  <COMPOUND>
Clc1ccccc1CNC[C@H]1CC[C@H](CNCc2ccccc2Cl)CC1

>  <cell viability (%)>
99.7

$$$$
>  <COMPOUND>
CC(C)COc1ccc(CNC(=O)N(Cc2ccc(F)cc2)C2CCN(C)CC2)cc1

>  <cell viability (%)>
105

$$$$
